Provide the reported IC50 of each item.
# target system: NRAS G12C (Homo sapiens (Human), UniProt P01111+P62937, G12C)
# Sequence (P01111 whole entry G12C, one chain of several): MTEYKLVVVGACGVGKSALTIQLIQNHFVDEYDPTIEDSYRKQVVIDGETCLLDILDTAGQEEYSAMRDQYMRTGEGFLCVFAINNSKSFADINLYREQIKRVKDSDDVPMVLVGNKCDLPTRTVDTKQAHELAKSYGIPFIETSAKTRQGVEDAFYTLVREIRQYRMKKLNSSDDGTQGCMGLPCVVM
# test: Ras-Raf disruption/FRET/MOA assay (BRAF RBD, Cyclophilin A)
# Assay type: biochemical
# measurement conditions: read-out: NRAS G12C FRET data IC50

Problem: Give the observed IC50 of CCn1c(-c2cccnc2[C@H](C)OC)c2c3cc(ccc31)-c1cc(O)cc(c1)C[C@H](NC(=O)[C@H](C(C)C)N(C)C(=O)[C@@H]1C[C@@H]1C)C(=O)N1CCC[C@H](N1)C(=O)OCC(C)(C)C2 for NRAS G12C (Homo sapiens (Human), UniProt P01111+P62937, G12C).
Solution: 10 to 100 nM

Problem: Give the observed IC50 of CCn1c(-c2cccnc2[C@H](C)OC)c2c3cc(ccc31)-c1cc(O)cc(c1)C[C@H](NC(=O)[C@H](C(C)C)N(C)C(=O)[C@H]1CC1(C)C)C(=O)N1CCC[C@H](N1)C(=O)OCC(C)(C)C2 for NRAS G12C (Homo sapiens (Human), UniProt P01111+P62937, G12C).
Solution: 100 to 1000 nM

* * *

# Tested on: NCI-H358 cells (K-Ras G12C)
# test: CellTiter-Glo cell viability, NCI-H358
# Format: cell-based, human
# measurement conditions: Homo sapiens, NCI-H358, 120 h, K-Ras G12C, 5-day treatment; read-out: H358 Cell Viability IC50
pIC50: −log10 of the molar value.
quantity measured: pIC50

Problem: Output measured pIC50 for this item: CCn1c(-c2cccnc2[C@H](C)OC)c2c3cc(ccc31)-c1csc(n1)C[C@H](NC(=O)[C@H](C(C)C)N(C)C(=O)N1CCN(C)CC13CC3)C(=O)N1CCC[C@H](N1)C(=O)OCC(C)(C)C2
Solution: 7.00 to 8.00

Problem: Output measured pIC50 for this item: CCn1c(-c2cc(N3CCN(C)CC3)cnc2[C@H](C)OC)c2c3cc(ccc31)-c1csc(n1)C[C@H](NC(=O)[C@H](C(C)C)N(C)C(=O)[C@@H]1CCCS1(=O)=O)C(=O)N1CCC[C@H](N1)C(=O)OCC(C)(C)C2
Solution: 7.00 to 8.00

Problem: Output measured pIC50 for this item: CCn1c(-c2cccnc2[C@H](C)OC)c2c3cc(ccc31)-c1cc(O)cc(c1)C[C@H](NC(=O)[C@H](C(C)C)N(C)C(=O)[C@H]1CC[C@@H]1N)C(=O)N1CCC[C@H](N1)C(=O)OCC(C)(C)C2
Solution: 7.00 to 8.00

Problem: Output measured pIC50 for this item: CCn1c(-c2cccnc2[C@H](C)OC)c2c3cc(ccc31)-c1cccc(c1)C[C@H](NC(=O)[C@H](C(C)C)N(C)C(=O)[C@@H]1OCC[C@@H]1c1ccccc1)C(=O)N1CCC[C@H](N1)C(=O)OCC(C)(C)C2
Solution: 6.00 to 7.00

Problem: Output measured pIC50 for this item: CCn1c(-c2cccnc2[C@H](C)OC)c2c3cc(ccc31)-c1cc(O)cc(c1)C[C@H](NC(=O)[C@H](C(C)C)N(C)C(=O)C1CC3(CCOCC3)CO1)C(=O)N1CCC[C@H](N1)C(=O)OCC(C)(C)C2 (some centres unmarked)
Solution: 6.00 to 7.00

Problem: Output measured pIC50 for this item: CCN(CC)C(=O)N(C)[C@H](C(=O)N[C@H]1Cc2nc(cs2)-c2ccc3c(c2)c(c(-c2cccnc2[C@H](C)OC)n3CC)CC(C)(C)COC(=O)[C@@H]2CCCN(N2)C1=O)C(C)C
Solution: 7.00 to 8.00

Problem: Output measured pIC50 for this item: CCn1c(-c2cccnc2[C@H](C)OC)c2c3cc(ccc31)-c1csc(n1)C[C@H](NC(=O)[C@H](C(C)C)N(C)C(=O)N1CC3(CCN(C)C3)C1)C(=O)N1CCC[C@H](N1)C(=O)OCC(C)(C)C2
Solution: 6.00 to 7.00

Problem: Output measured pIC50 for this item: CCn1c(-c2cccnc2[C@H](C)OC)c2c3cc(ccc31)-c1csc(n1)C[C@H](NC(=O)[C@H](C(C)C)N(C)C(=O)N(C)[C@@H]1CCN(C)C1)C(=O)N1CCC[C@H](N1)C(=O)OCC(C)(C)C2
Solution: 7.00 to 8.00

Problem: Output measured pIC50 for this item: CCn1c(-c2cccnc2[C@H](C)OC)c2c3cc(ccc31)-c1cc(O)cc(c1)C[C@H](NC(=O)[C@H](C(C)C)N(C)C(=O)C1CCC1)C(=O)N1CCC[C@H](N1)C(=O)OCC(C)(C)C2
Solution: 7.00 to 8.00

Problem: Output measured pIC50 for this item: CCn1c(-c2cnccc2COC)c2c3cc(ccc31)-c1cc(O)cc(c1)C[C@H](NC(=O)[C@@H](NC(C)=O)C(C)C)C(=O)N1CCC[C@H](N1)C(=O)OCC(C)(C)C2
Solution: 5.00 to 6.00

Problem: Output measured pIC50 for this item: CCn1c(-c2cnccc2COC)c2c3cc(ccc31)-c1cc(O)cc(c1)C[C@H](NC(=O)[C@H](C(C)C)N(C)c1cnc(N)[nH]c1=O)C(=O)N1CCC[C@H](N1)C(=O)OCC(C)(C)C2
Solution: < 5.00

Problem: Output measured pIC50 for this item: CCn1c(-c2cccnc2[C@H](C)OC)c2c3cc(ccc31)-c1csc(n1)C[C@H](NC(=O)[C@H](C(C)C)N1CCC3(COC3)C1)C(=O)N1CCC[C@H](N1)C(=O)OCC(C)(C)C2
Solution: > 8.00

Problem: Output measured pIC50 for this item: CCn1c(-c2cccnc2[C@H](C)OC)c2c3cc(ccc31)-c1csc(n1)C[C@H](NC(=O)[C@H](C(C)C)N(C)C(=O)N1CCC[C@H](N(C)C)CC1)C(=O)N1CCC[C@H](N1)C(=O)OCC(C)(C)C2
Solution: 7.00 to 8.00

Problem: Output measured pIC50 for this item: CCn1c(-c2cccnc2[C@H](C)OC)c2c3cc(ccc31)-c1cc(O)cc(c1)C[C@H](NC(=O)[C@H](C(C)C)N(C)C(=O)C13CC(CO1)C3)C(=O)N1CCC[C@H](N1)C(=O)OCC(C)(C)C2
Solution: 7.00 to 8.00

Problem: Output measured pIC50 for this item: CCn1c(-c2cccnc2[C@H](C)OC)c2c3cc(ccc31)-c1cc(O)cc(c1)C[C@H](NC(=O)[C@H](C(C)C)N(C)C(=O)[C@@H]1CCN(C(=O)[C@]3(C)CCCN3C)C1)C(=O)N1CCC[C@H](N1)C(=O)OCC(C)(C)C2
Solution: 7.00 to 8.00

Problem: Output measured pIC50 for this item: CCn1c(-c2cccnc2[C@H](C)OC)c2c3cc(ccc31)-c1cc(O)cc(c1)C[C@H](NC(=O)[C@H](C(C)C)N(C)C(=O)[C@H]1CC[C@@H](C(N)=O)O1)C(=O)N1CCC[C@H](N1)C(=O)OCC(C)(C)C2
Solution: 6.00 to 7.00

Problem: Output measured pIC50 for this item: CCn1c(-c2cccnc2[C@H](C)OC)c2c3cc(ccc31)-c1cc(O)cc(c1)C[C@H](NC(=O)[C@H](C(C)C)N(C)C(=O)[C@H]1CCN(C(=O)C(C)(C)NC)C1)C(=O)N1CCC[C@H](N1)C(=O)OCC(C)(C)C2
Solution: 6.00 to 7.00

* * *

# target system: KRAS G13C (Homo sapiens (Human), UniProt P01116+P62937, G13C)
# Sequence (P01116 other isoform, or with tags, fused parts or gaps G13C): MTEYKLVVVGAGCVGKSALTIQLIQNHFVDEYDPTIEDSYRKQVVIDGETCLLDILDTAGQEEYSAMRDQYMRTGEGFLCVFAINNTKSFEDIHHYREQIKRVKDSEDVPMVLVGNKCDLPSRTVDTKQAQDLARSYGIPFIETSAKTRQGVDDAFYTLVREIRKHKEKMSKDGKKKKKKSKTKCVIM
# Sequence (P62937 whole entry): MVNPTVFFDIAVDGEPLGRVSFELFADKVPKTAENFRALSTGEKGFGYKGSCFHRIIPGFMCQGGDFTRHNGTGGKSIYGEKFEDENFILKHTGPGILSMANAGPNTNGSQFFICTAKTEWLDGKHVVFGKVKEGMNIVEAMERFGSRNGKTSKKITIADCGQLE
# test: Ras-Raf disruption/FRET/MOA assay (BRAF RBD, Cyclophilin A)
# Format: biochemical
# measurement conditions: read-out: KRAS G13C FRET IC50
quantity measured: IC50

Problem: Output measured IC50 for this item: CCn1c(-c2cccnc2[C@H](C)OC)c2c3cc(ccc31)-c1csc(n1)C[C@H](NC(=O)[C@H](C(C)C)N(C)C(=O)N1CCC[C@H](N(C)C)CC1)C(=O)N1CCC[C@H](N1)C(=O)OCC(C)(C)C2
Solution: 100 to 1000 nM

Problem: Output measured IC50 for this item: CCn1c(-c2cccnc2[C@H](C)OC)c2c3cc(ccc31)-c1cc(O)cc(c1)C[C@H](NC(=O)[C@H](C(C)C)N(C)C(=O)[C@@H]1OCC[C@H]1c1ccccc1)C(=O)N1CCC[C@H](N1)C(=O)OCC(C)(C)C2
Solution: 10 to 100 nM

Problem: Output measured IC50 for this item: CCn1c(-c2cccnc2[C@H](C)OC)c2c3cc(ccc31)-c1cc(O)cc(c1)C[C@H](NC(=O)[C@H](C(C)C)N(C)C(=O)[C@@H]1[C@H]3CC[C@H](C3)[C@@H]1N)C(=O)N1CCC[C@H](N1)C(=O)OCC(C)(C)C2
Solution: 100 to 1000 nM

Problem: Output measured IC50 for this item: CCn1c(-c2cccnc2[C@H](C)OC)c2c3cc(ccc31)-c1cc(O)cc(c1)C[C@H](NC(=O)[C@H](C(C)C)N(C)C(=O)[C@H]1CCN(C3CC3)C1)C(=O)N1CCC[C@H](N1)C(=O)OCC(C)(C)C2
Solution: 100 to 1000 nM

Problem: Output measured IC50 for this item: CCn1c(-c2cccnc2[C@H](C)OC)c2c3cc(ccc31)-c1csc(n1)C[C@H](NC(=O)[C@H](C(C)C)N(C)C(=O)N1CC3CCC1CN3C)C(=O)N1CCC[C@H](N1)C(=O)OCC(C)(C)C2
Solution: 1000 to 10000 nM

Problem: Output measured IC50 for this item: CCn1c(-c2cnccc2COC)c2c3cc(ccc31)-c1cc(O)cc(c1)C[C@H](NC(=O)[C@H](C(C)C)N(C)C(=O)[C@@H](C)O)C(=O)N1CCC[C@H](N1)C(=O)OCC(C)(C)C2
Solution: 100 to 1000 nM

Problem: Output measured IC50 for this item: CCn1c(-c2cccnc2[C@H](C)OC)c2c3cc(ccc31)-c1cc(O)cc(c1)C[C@H](NC(=O)[C@H](C(C)C)N(C)C(=O)[C@H]1CCCCNC1)C(=O)N1CCC[C@H](N1)C(=O)OCC(C)(C)C2
Solution: 10 to 100 nM

Problem: Output measured IC50 for this item: CCn1c(-c2cccnc2[C@H](C)OC)c2c3cc(ccc31)-c1cc(O)cc(c1)C[C@H](NC(=O)[C@H](C(C)C)N(C)C(=O)C13CCC(CC1)O3)C(=O)N1CCC[C@H](N1)C(=O)OCC(C)(C)C2
Solution: 100 to 1000 nM

Problem: Output measured IC50 for this item: CCn1c(-c2cccnc2[C@H](C)OC)c2c3cc(ccc31)-c1cc(O)cc(c1)C[C@H](NC(=O)[C@H](C(C)C)N(C)C(=O)[C@H]1CCN(C(C)=O)C1)C(=O)N1CCC[C@H](N1)C(=O)OCC(C)(C)C2
Solution: 100 to 1000 nM

Problem: Output measured IC50 for this item: CCn1c(-c2cccnc2[C@H](C)OC)c2c3cc(ccc31)-c1cc(O)cc(c1)C[C@H](NS(=O)(=O)c1ccc(O)cc1)C(=O)N1CCC[C@H](N1)C(=O)OCC(C)(C)C2
Solution: > 10000 nM

Problem: Output measured IC50 for this item: CCn1c(-c2cccnc2[C@H](C)OC)c2c3cc(ccc31)-c1cc(O)cc(c1)C[C@H](NC(=O)[C@H](C(C)C)N(C)C(=O)C1CCC1)C(=O)N1CCC[C@H](N1)C(=O)OCC(C)(C)C2
Solution: 10 to 100 nM

Problem: Output measured IC50 for this item: CCn1c(-c2cc(N3CCN(C)CC3)cnc2[C@H](C)OC)c2c3cc(ccc31)-c1csc(n1)C[C@H](NC(=O)[C@H](C(C)C)N(C)C(=O)[C@H]1CCCS1(=O)=O)C(=O)N1CCC[C@H](N1)C(=O)OCC(C)(C)C2
Solution: 100 to 1000 nM

Problem: Output measured IC50 for this item: CCn1c(-c2cnccc2COC)c2c3cc(ccc31)-c1cc(O)cc(c1)C[C@H](NC(=O)[C@H](C(C)C)N(C)C(=O)O[C@@H]1CCOC1)C(=O)N1CCC[C@H](N1)C(=O)OCC(C)(C)C2
Solution: 100 to 1000 nM

Problem: Output measured IC50 for this item: CCn1c(-c2cccnc2[C@H](C)OC)c2c3cc(ccc31)-c1cc(O)cc(c1)C[C@H](NC(=O)[C@H](C(C)C)N(C)C(=O)C1CCC(C(F)(F)F)O1)C(=O)N1CCC[C@H](N1)C(=O)OCC(C)(C)C2 (some centres unmarked)
Solution: 10 to 100 nM

Problem: Output measured IC50 for this item: CCn1c(-c2cccnc2[C@H](C)OC)c2c3cc(ccc31)-c1cc(O)cc(c1)C[C@H](NC(=O)[C@H](C(C)C)N(C)C(=O)[C@H]1CN[C@@H]3CCO[C@H]13)C(=O)N1CCC[C@H](N1)C(=O)OCC(C)(C)C2
Solution: 10 to 100 nM

Problem: Output measured IC50 for this item: CCn1c(-c2cccnc2[C@H](C)OC)c2c3cc(ccc31)-c1csc(n1)C[C@H](NC(=O)[C@H](C(C)C)N(C)C(=O)N1CCOC3(COC3)C1)C(=O)N1CCC[C@H](N1)C(=O)OCC(C)(C)C2
Solution: 100 to 1000 nM

Problem: Output measured IC50 for this item: CCn1c(-c2cccnc2[C@H](C)OC)c2c3cc(ccc31)-c1csc(n1)C[C@H](NC(=O)[C@H](C(C)C)N(C)C(=O)N1CCOC[C@@H]1C)C(=O)N1CCC[C@H](N1)C(=O)OCC(C)(C)C2
Solution: 100 to 1000 nM
